assay.comment: Acute toxicity test (LD50) of AZL in rats, oral gavage
Assay type: in vivo, rat
test.parameters: both sexes, Sprague Dawley, rat, in vivo, po, single oral gavage, improved Karber's method, read-out: 95% confidence limit of LD50
outcome.measure: LD50 at 14 days

INSERT INTO measurements (smiles_notation, observed_value) VALUES
  ('CC(=O)Nc1ccc(Oc2ccc(-n3ncc(=O)[nH]c3=O)cc2C)cc1', '3750 to 5990 mg/kg');
